Measured IC50, listed per entry.
- STUDY SYSTEM: LPA2 receptor (LPA2R) (Homo sapiens, UniProt Q9HBW0)
- Sequence (Q9HBW0 whole entry): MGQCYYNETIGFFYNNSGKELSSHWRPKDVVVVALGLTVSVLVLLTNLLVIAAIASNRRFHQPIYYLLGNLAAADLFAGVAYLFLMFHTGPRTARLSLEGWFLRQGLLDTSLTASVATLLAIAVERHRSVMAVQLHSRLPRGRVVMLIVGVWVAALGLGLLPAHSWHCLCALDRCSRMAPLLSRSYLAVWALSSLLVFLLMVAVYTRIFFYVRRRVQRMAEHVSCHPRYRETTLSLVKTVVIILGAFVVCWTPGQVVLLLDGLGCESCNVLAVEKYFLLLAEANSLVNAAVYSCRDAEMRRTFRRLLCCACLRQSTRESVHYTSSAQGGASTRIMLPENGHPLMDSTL
- EXPERIMENT: LPA2R-Calciumflux assay (intracellular calcium mobilisation, FLIPR)
- MEASUREMENT CONTEXT: U2OS cells recombinant expressing LPA2R; inhibition of LPA-induced Ca-flux; 10 concentrations 30 uM to 1 nM, 1% DMSO
- Method: The assay detects intra cellular calcium which is generated by cells upon activation of the LPA2 receptor by its ligand LPA. This transient calcium mobilization can be monitored using a commercial calcium detection kit (e.g. from Molecular Devices). The main component of such a kit is a dye, which becomes fluorescent when calcium is present—a transient fluorescence signal after laddition of a ligand to a test well are the result. […] The signals are calculated according to peak maximum minus base line. […]

Take a look at these entries with their results.
> print(dat)
                                   compound  observed.result
1  FC(F)(F)c1cccc(CN2CCCCC2c2cc3ccccc3[nH]2)c1 (stereo not drawn) [compound 17]       5 to 15 µM
2  FC(F)(F)c1ccc(CN2CCCCC2c2cc3ccccc3[nH]2)cc1 (stereo not drawn) [compound 18]      0.5 to 5 µM
3  Cc1ccc(CN2CCCCC2c2nc3ccc(Cl)cc3[nH]2)cc1C(F)(F)F (stereo not drawn) [compound 90]      0.5 to 5 µM
4  CCc1nc(CN2CCCCC2c2cc3cc(F)ccc3[nH]2)cs1 (stereo not drawn) [compound 85]         < 0.5 µM
5  FC(F)(F)c1cccc(CN2CCCCC2c2nc3ccc(Cl)cc3[nH]2)c1 (stereo not drawn) [compound 89]      0.5 to 5 µM

Prompt: # input compound: Cc1cccc(CN2CCCCC2c2cc3cc(F)cc(F)c3[nH]2)c1 (stereo not drawn) [compound 21] ; wanted: its IC50
Completion: 5 to 15 µM

Prompt: Then CCOC(=O)c1ccc(CN2CCCCC2c2cc3ccccc3[nH]2)cc1 (stereo not drawn) [compound 25] ?
Completion: 0.5 to 5 µM

Prompt: Then Cc1ccc(CN2CCCCC2c2cc3ccccc3[nH]2)cc1C (stereo not drawn) [compound 5] ?
Completion: < 0.5 µM

Prompt: Then CC1CCCC(c2cc3ccccc3[nH]2)N1Cc1ccccc1O (stereo not drawn) [compound 26] ?
Completion: 0.5 to 5 µM

Prompt: Then Cc1cc(C)c2cc(C3CCCCN3Cc3ccc(F)cc3)[nH]c2c1 (stereo not drawn) [compound 69] ?
Completion: 0.5 to 5 µM

Prompt: Then Fc1ccc2[nH]c(C3CCCCN3Cc3c[nH]c4ccccc34)cc2c1 (stereo not drawn) [compound 63] ?
Completion: 0.5 to 5 µM

Prompt: Then Cc1cccc(CN2CCCCC2c2cc3cc(F)ccc3[nH]2)c1 (stereo not drawn) [compound 14] ?
Completion: 0.5 to 5 µM

Reference source: patent US9527850B2
